Just for reference, paper PMC6009896 is where these values come from.

MEASURED_TARGET: Human CA I (Homo sapiens, UniProt P00915)
Sequence (P00915 whole entry): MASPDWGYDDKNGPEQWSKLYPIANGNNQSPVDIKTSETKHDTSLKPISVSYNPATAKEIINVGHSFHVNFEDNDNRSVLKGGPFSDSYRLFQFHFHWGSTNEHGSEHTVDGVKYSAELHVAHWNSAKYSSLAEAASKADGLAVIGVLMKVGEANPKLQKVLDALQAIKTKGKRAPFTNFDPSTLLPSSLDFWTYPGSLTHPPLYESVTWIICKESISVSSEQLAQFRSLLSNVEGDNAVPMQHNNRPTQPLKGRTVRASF
MEASUREMENT_DESCRIPTION: CA catalyzed CO2 hydration stopped-flow assay, CA I
ENDPOINT_LABEL: IC50

COc1ccc(-c2ccc(S(=O)(=O)C(Cc3ccccc3)P(=O)(O)O)cc2)cc1 (centres unmarked) [Compound 10]	> 10 µM

Next, consider the following molecule.
Return reported IC50; argument: Cc1cccc(-c2ccc(S(=O)(=O)N[C@@H](C(C)C)P(=O)(O)O)cc2)c1 [(R)-13]
> 10 µM

---

MEASURED_TARGET: Human CA I (Homo sapiens)
MEASUREMENT_DESCRIPTION: CA catalyzed CO2 hydration stopped-flow assay, CA I
CONDITION_SUMMARY: read-out: IC50 CA I; Table 2; recombinant human CA I, stopped-flow CO2 hydration
ENDPOINT_LABEL: pIC50
Expect pIC50 as a plain number equal to -log10 of the molar concentration.

Return reported pIC50; argument: `O=C(CS(=O)(=O)c1ccc(-c2ccccc2)cc1)NO`
5.08
